SUBJECT_OF_TEST: Apoptosis regulator Bcl-2 (Homo sapiens)
Sequence (P10415 whole entry): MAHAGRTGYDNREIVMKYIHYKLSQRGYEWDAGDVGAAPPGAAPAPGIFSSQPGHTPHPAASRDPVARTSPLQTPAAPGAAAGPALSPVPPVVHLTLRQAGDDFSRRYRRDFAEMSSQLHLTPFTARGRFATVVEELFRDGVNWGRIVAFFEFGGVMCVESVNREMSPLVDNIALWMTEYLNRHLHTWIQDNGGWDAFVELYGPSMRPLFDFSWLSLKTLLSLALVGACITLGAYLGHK
READOUT_NAME: Kd
Value and unit, in that order.

Which Kd is listed for CC(C)C(NC1=NS(=O)(=O)c2ccccc21)C(=O)NCC(NC(=O)C1(NC(=O)COc2ccccc2-c2n[nH]c3ccc(Cl)cc23)CC1)C(=O)NC(=O)CCCCC[C@@H]1SC[C@@H]2NC(=O)N[C@@H]21 (stereo partly specified) ?
21 nM
